# targetSystem: mTOR/GbL/Raptor (mTORC1) (Homo sapiens, UniProt P42345)
# testSummary: mTOR/GbL/Raptor (mTORC1) ELISA assay
# conditionDetails: phosphorylation of 4E-BP1; 0.2 nM mTORC1, 10 μM ATP; read-out: IC50 in this assay (mTORC1 ELISA)
Catalogue of IC50 values

compound | targetSystem | readoutKind | result
CCCc1nc2cc(-c3ccc4c(c3)CN(c3ncnc5c3CC(C)(C)CC5)CCO4)cnc2[nH]1 | mTOR/GbL/Raptor (mTORC1) (Homo sapiens, UniProt P42345) | IC50 | ≤ 10 nM
Cc1nc2ncc(-c3ccc4c(c3)CN(c3ncnc5c3ccn5C)CCO4)cc2[nH]1 | mTOR/GbL/Raptor (mTORC1) (Homo sapiens, UniProt P42345) | IC50 | 250 to 1000 nM

Form: compound = CN1CC[C@@H](NS(=O)(=O)c2cc(-c3ccc4c(c3)CN(c3ncnc5c3CC(C)(C)CC5)CCO4)cnc2N)C1 ; IC50 = 50 to 250 nM

Form: compound = CC1(C)CCc2ncnc(N3CCOc4ccc(-c5ccc6nc(NCCF)[nH]c6c5)cc4C3)c2C1 ; IC50 = ≤ 10 nM

Form: compound = CN(C)c1ncc(-c2ccc3c(c2)CN(c2ncnc4c2CC(C)(C)CC4)CCO3)cc1NS(C)(=O)=O ; IC50 = 10 to 50 nM

Form: compound = CN(C)Cc1nc2c(c(N3CCOc4ccc(-c5cnc6sc(N)nc6c5)cc4C3)n1)CC(C)(C)CC2 ; IC50 = 10 to 50 nM

Form: compound = Cc1nc2c(F)c(-c3ccc4c(c3)CN(c3nc(CN(C)C)nc5c3CC(C)(C)CC5)CCO4)ccc2[nH]1 ; IC50 = 250 to 1000 nM

###

# targetSystem: mTOR/GbL/Raptor (mTORC1) (Homo sapiens, UniProt P42345)
# testSummary: mTOR/GbL/Raptor (mTORC1) ELISA assay
# conditionDetails: phosphorylation of 4E-BP1; 0.2 nM mTORC1, 10 μM ATP; read-out: IC50 in this assay (mTORC1 ELISA)
readoutKind: IC50

Answered examples (5):
compound | IC50
Cc1nc2ncc(-c3ccc4c(c3)CN(c3ncnc5c3CCC(C)(C)C5)CCO4)cc2[nH]1 [Example 484] | ≤ 10 nM
Cc1ccc(N2Cc3ncnc(N4CCOc5ccc(-c6ccc7nc(C)[nH]c7c6)cc5C4)c3C2)cc1 [Example 88] | 1000 to 2000 nM
Cc1nc2ncc(-c3ccc4c(c3)CN(c3nc(CNC5CCC5)nc5c3CC(C)(C)CC5)CCO4)cc2[nH]1 [Example 597] | ≤ 10 nM
CCNCc1nc2c(c(N3CCOc4ccc(-c5cnc6nc(C)[nH]c6c5)cc4C3)n1)CC(C)(C)CC2 [Example 600] | ≤ 10 nM
Cc1nc2ccc(-c3ccc4c(c3)CN(c3nc(CN(C)C)nc(C)c3C)CCO4)cc2[nH]1 [Example 672] | ≥ 2000 nM

Note to self: IC50 of COc1ccc(-c2ccc3c(c2)CN(c2nc(CN(C)C)nc4c2CC(C)(C)CC4)CCO3)cc1OC(F)F [Example 649] with mTOR/GbL/Raptor (mTORC1) (Homo sapiens, UniProt P42345) was 250 to 1000 nM

Note to self: IC50 of Nc1nc2ncc(-c3ccc4c(c3)CN(c3ncnc5ccc(F)cc35)CCO4)cc2[nH]1 [Example 187] with mTOR/GbL/Raptor (mTORC1) (Homo sapiens, UniProt P42345) was 10 to 50 nM

Note to self: IC50 of Cc1nc(N)nc(N2CCOc3ccc(-c4ccc5[nH]cnc5c4)cc3C2)c1Cc1ccc(F)cc1 [Example 651] with mTOR/GbL/Raptor (mTORC1) (Homo sapiens, UniProt P42345) was ≤ 10 nM

Note to self: IC50 of Cc1nc2cc(-c3ccc4c(c3)CN(c3nc(C(C)N(C)C)nc5c3CC(C)(C)CC5)CCO4)cnc2[nH]1 (stereo not drawn) [Example 356] with mTOR/GbL/Raptor (mTORC1) (Homo sapiens, UniProt P42345) was 50 to 250 nM

Note to self: IC50 of CCN(CC)Cc1nc(C)c(C(C)C)c(N2CCOc3ccc(-c4ccc5nc(C)[nH]c5c4)cc3C2)n1 [Example 685] with mTOR/GbL/Raptor (mTORC1) (Homo sapiens, UniProt P42345) was 50 to 250 nM

Note to self: IC50 of Cc1nc2ccc(-c3ccc4c(c3)CN(c3ncnc(C)c3CC3CC3)CCO4)cc2[nH]1 [Example 69] with mTOR/GbL/Raptor (mTORC1) (Homo sapiens, UniProt P42345) was 50 to 250 nM

Note to self: IC50 of COc1cc2ncnc(N3CCOc4ccc(-c5ccc6nc(C)[nH]c6c5)cc4C3)c2cc1I [Example 37] with mTOR/GbL/Raptor (mTORC1) (Homo sapiens, UniProt P42345) was 10 to 50 nM

Note to self: IC50 of Cc1nc2ccc(-c3ccc4c(c3)CN(c3ccnc5cc(F)ccc35)CCO4)cc2[nH]1 [Example 241] with mTOR/GbL/Raptor (mTORC1) (Homo sapiens, UniProt P42345) was 250 to 1000 nM

Note to self: IC50 of COc1ccc2nc(Cl)nc(N3CCOc4ccc(-c5ccc6nc(C)[nH]c6c5)cc4C3)c2c1 [Example 33] with mTOR/GbL/Raptor (mTORC1) (Homo sapiens, UniProt P42345) was 250 to 1000 nM

Note to self: IC50 of CC1(C)CCc2ncnc(N3CCOc4ccc(-c5cnc(N)c(S(=O)(=O)N6CCNCC6)c5)cc4C3)c2C1 [Example 514] with mTOR/GbL/Raptor (mTORC1) (Homo sapiens, UniProt P42345) was ≤ 10 nM

###

# targetSystem: mTOR/GbL/Raptor (mTORC1) (Homo sapiens)
# testSummary: mTOR/GbL/Raptor (mTORC1) ELISA assay
# conditionDetails: phosphorylation of 4E-BP1; 0.2 nM mTORC1, 10 μM ATP; read-out: IC50 in this assay (mTORC1 ELISA)
Catalogue of IC50 values

Answered examples (4):
molecule | IC50
Nc1nc2ncc(-c3ccc4c(c3)CN(c3ncnc5ccc(Cl)cc35)CCO4)cc2[nH]1 | 10 to 50 nM
Cc1ncnc(N2CCOc3ccc(-c4ccn5nc(N)nc5c4)cc3C2)c1Cc1ccc(F)cc1 | 10 to 50 nM
Cc1nc2ccc(-c3ccc4c(c3)CN(c3ncnc(C)c3Cc3cccc(C(F)(F)F)c3)CCO4)cc2[nH]1 | 250 to 1000 nM
CC1(C)CCc2ncnc(N3CCOc4ccc(-c5cnc(N)c(S(=O)(=O)NCC(O)C(F)(F)F)c5)cc4C3)c2C1 (stereo not drawn) | ≤ 10 nM

Note to self: IC50 of Cc1nc(N2CCOc3ccc(-c4ccc(N)nc4)cc3C2)c2ccccc2n1 with mTOR/GbL/Raptor (mTORC1) (Homo sapiens) was 250 to 1000 nM

Note to self: IC50 of CC1(C)CCc2ncnc(N3CCOc4ccc(-c5cnc6[nH]ncc6c5)cc4C3)c2C1 with mTOR/GbL/Raptor (mTORC1) (Homo sapiens) was 50 to 250 nM

Note to self: IC50 of Cc1nc2cc(-c3ccc4c(c3)CN(c3nc(C(C)N5CCCC5)nc5c3CC(C)(C)CC5)CCO4)cnc2[nH]1 (stereo not drawn) with mTOR/GbL/Raptor (mTORC1) (Homo sapiens) was 250 to 1000 nM

Note to self: IC50 of Cc1ncnc(N2CCOc3ccc(-c4ccc5[nH]nc(N)c5c4)cc3C2)c1Cc1ccc(F)cc1 with mTOR/GbL/Raptor (mTORC1) (Homo sapiens) was 50 to 250 nM

Note to self: IC50 of Cc1ncnc(N2CCOc3ccc(-c4ccc5[nH]c(NCCF)nc5c4)cc3C2)c1Cc1ccc(F)cc1 with mTOR/GbL/Raptor (mTORC1) (Homo sapiens) was ≤ 10 nM

Note to self: IC50 of Cc1nc2cc(-c3ccc4c(c3)CN(c3nc(CN5CCCC5)nc5c3CC(C)(C)CC5)CCO4)ccc2[nH]1 with mTOR/GbL/Raptor (mTORC1) (Homo sapiens) was ≤ 10 nM

Note to self: IC50 of CC1(C)CCc2ncnc(N3CCOc4ccc(-c5cnc(N)c(S(=O)(=O)NCC6CCCNC6)c5)cc4C3)c2C1 (stereo not drawn) with mTOR/GbL/Raptor (mTORC1) (Homo sapiens) was 50 to 250 nM

Note to self: IC50 of CC1(C)CCc2ncnc(N3CCOc4ccc(-c5cnc(N)c(S(=O)(=O)NCCF)c5)cc4C3)c2C1 with mTOR/GbL/Raptor (mTORC1) (Homo sapiens) was 10 to 50 nM

Note to self: IC50 of COc1ccc2c(N3CCOc4ccc(-c5cnc(N)c(S(=O)(=O)C[C@@H](C)CO)c5)cc4C3)ncnc2c1 with mTOR/GbL/Raptor (mTORC1) (Homo sapiens) was 250 to 1000 nM

Note to self: IC50 of CCc1nc(CN(C)C)nc(N2CCOc3ccc(-c4ccc5[nH]c(C)nc5c4)cc3C2)c1C with mTOR/GbL/Raptor (mTORC1) (Homo sapiens) was 1000 to 2000 nM

Note to self: IC50 of CN1C[C@@H]2C[C@H]1CN2S(=O)(=O)c1cc(-c2ccc3c(c2)CN(c2ncnc4c2CC(C)(C)CC4)CCO3)cnc1N with mTOR/GbL/Raptor (mTORC1) (Homo sapiens) was 50 to 250 nM

Note to self: IC50 of COC(=O)Nc1cc(-c2ccc3c(c2)CN(c2ncnc4c2CC(C)(C)CC4)CCO3)cnc1Cl with mTOR/GbL/Raptor (mTORC1) (Homo sapiens) was 1000 to 2000 nM

Note to self: IC50 of Cc1nc2cc(-c3ccc4c(c3)CN(c3nc(CN(C)C)nc(C)c3-c3ccccc3)CCO4)ccc2[nH]1 with mTOR/GbL/Raptor (mTORC1) (Homo sapiens) was 50 to 250 nM

Note to self: IC50 of Cc1nc2ccc(-c3ccc4c(c3)CN(c3ncnc5ccc(OCC#N)cc35)CCO4)cc2[nH]1 with mTOR/GbL/Raptor (mTORC1) (Homo sapiens) was 250 to 1000 nM

Note to self: IC50 of Cc1nc2cc(-c3ccc4c(c3)CN(c3ccnc5ccccc35)CCO4)ccc2s1 with mTOR/GbL/Raptor (mTORC1) (Homo sapiens) was ≥ 2000 nM

Note to self: IC50 of Cc1nc(CN(C)C)nc(N2CCOc3ccc(-c4cnc5sc(N)nc5c4)cc3C2)c1C(C)C with mTOR/GbL/Raptor (mTORC1) (Homo sapiens) was 10 to 50 nM

Note to self: IC50 of CCCc1nc2ccc(-c3ccc4c(c3)CN(c3ccnc5ccccc35)CCO4)cc2[nH]1 with mTOR/GbL/Raptor (mTORC1) (Homo sapiens) was 1000 to 2000 nM

Note to self: IC50 of CN(C)S(=O)(=O)c1cc(-c2ccc3c(c2)CN(c2ncnc4c2CC(C)(C)CC4)CCO3)cnc1N with mTOR/GbL/Raptor (mTORC1) (Homo sapiens) was 10 to 50 nM
